Just for reference, paper PMC10786891 is where these values come from.

Biological target: T1, EsCas13d, nuclease-dead (Eubacterium siraeum, UniProt B0MS50, R295A;H300A;R849A;H854A)
T1 sequence: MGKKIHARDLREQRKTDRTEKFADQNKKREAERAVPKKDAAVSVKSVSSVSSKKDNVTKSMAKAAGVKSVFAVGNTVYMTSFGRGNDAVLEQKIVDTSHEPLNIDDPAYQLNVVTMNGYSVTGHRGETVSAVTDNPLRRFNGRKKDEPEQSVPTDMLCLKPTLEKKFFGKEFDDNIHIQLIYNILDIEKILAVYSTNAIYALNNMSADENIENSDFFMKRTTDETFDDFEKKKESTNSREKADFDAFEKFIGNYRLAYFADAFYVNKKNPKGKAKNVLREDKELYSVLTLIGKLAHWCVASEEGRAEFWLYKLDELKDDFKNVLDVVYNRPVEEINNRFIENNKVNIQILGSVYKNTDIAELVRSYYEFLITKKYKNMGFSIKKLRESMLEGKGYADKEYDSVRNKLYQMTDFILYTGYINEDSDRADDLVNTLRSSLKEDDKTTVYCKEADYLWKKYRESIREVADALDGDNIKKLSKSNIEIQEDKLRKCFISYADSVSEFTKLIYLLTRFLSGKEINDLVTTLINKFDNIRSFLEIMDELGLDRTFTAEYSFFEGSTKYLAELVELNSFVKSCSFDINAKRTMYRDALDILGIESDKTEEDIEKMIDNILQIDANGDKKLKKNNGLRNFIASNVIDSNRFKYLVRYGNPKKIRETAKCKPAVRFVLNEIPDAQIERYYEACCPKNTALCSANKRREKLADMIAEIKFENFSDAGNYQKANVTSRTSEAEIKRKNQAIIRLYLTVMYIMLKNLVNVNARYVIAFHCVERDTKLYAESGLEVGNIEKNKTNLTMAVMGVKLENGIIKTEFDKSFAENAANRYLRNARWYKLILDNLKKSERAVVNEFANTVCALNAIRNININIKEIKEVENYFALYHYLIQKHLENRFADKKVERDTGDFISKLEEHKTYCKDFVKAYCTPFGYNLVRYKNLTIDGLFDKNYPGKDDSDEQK
Test: crRNA (strand 1, pre-loaded); Mg2+; 40 mM Tris-HCl pH 7.5, 150 mM NaCl, 6 mM MgCl2, 1 mM DTT, 0.1% Tween-20, 0.2 mg/ml BSA; 25 C; 10 min per concentration, then washed
Settings: tags: His6-TwinStrep-SUMO cleaved; N-terminal SNAP kept (SNAP-Surface 488); label: 3' end held by stalled T7 RNA polymerase

BINDER: target 1 MT 5'PFS GAC 3'PFS ACC (mixed) RNA 1: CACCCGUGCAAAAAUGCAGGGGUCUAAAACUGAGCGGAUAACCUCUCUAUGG RNA 2: GGGAAUGGAUCCACAUCUACGAAUUCGACCCAUAGAGAGGUUAUCCGCUCAACCAGAUCGGAAGAGCACACGU
Kd / µM: 0.0755
//
BINDER: target 1 MT 5'PFS CUA 3'PFS UAA (mixed) RNA 1: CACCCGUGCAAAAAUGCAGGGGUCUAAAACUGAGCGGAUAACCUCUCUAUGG RNA 2: GGGAAUGGAUCCACAUCUACGAAUUCCUACCAUAGAGAGGUUAUCCGCUCAUAAAGAUCGGAAGAGCACACGU
Kd / µM: 0.006
//
BINDER: target 2 MT 5'PFS UAG 3'PFS CAC (mixed) RNA 1: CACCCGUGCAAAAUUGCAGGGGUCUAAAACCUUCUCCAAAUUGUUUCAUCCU RNA 2: GGGAAUGGAUCCACAUCUACGAAUUCUAGAGGAUGAAACAAUUUGGAGAAGCACAGAUCGGAAGAGCACACGU
Kd / µM: 0.00269
//
BINDER: target 1 MT 5'PFS GGA 3'PFS UUG (mixed) RNA 1: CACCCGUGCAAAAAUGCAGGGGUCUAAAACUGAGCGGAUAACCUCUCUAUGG RNA 2: GGGAAUGGAUCCACAUCUACGAAUUCGGACCAUAGAGAGGUUAUCCGCUCAUUGAGAUCGGAAGAGCACACGU
Kd / µM: 0.0089
//
BINDER: target 1 U3A,G5U (mixed) RNA 1: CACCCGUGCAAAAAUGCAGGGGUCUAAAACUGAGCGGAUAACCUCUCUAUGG RNA 2: GGGAAUGGAUCCACAUCUACGAAUUCGUACCAUAGAGAGGUUAUCCUCACACCGAGAUCGGAAGAGCACACGU
Kd / µM: 0.0144
//
BINDER: target 1 A16U (mixed) RNA 1: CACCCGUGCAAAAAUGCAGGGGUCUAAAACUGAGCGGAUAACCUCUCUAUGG RNA 2: GGGAAUGGAUCCACAUCUACGAAUUCGUACCAUAGUGAGGUUAUCCGCUCACCGAGAUCGGAAGAGCACACGU
Kd / µM: 0.058
//
BINDER: target 2 MT 5'PFS GCG 3'PFS AUG (mixed) RNA 1: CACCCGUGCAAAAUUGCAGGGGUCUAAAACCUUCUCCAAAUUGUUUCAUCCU RNA 2: GGGAAUGGAUCCACAUCUACGAAUUCGCGAGGAUGAAACAAUUUGGAGAAGAUGAGAUCGGAAGAGCACACGU
Kd / µM: 0.0155
